# Test system: surinam grass
# measurement description: Test B pre/postemergence surinam grass
# Assay type: in vivo, Brachiaria decumbens
# experimental setup: Preemergence, Rate 250 g/ha; scale 0 to 10 (0 no effect, 10 complete control)
# Plant response rating, B. signalgrass annotations
The answer should be written as a number, with no unit following it.

Use the examples below as a reference point.
>  <molecule>
CC[C@@H](C)n1c(=O)on(C(=O)N(c2ccc(Cl)cc2)C(C)C)c1=O [Compound 665]

>  <Plant response rating, B. signalgrass>
8

$$$$
>  <molecule>
CC(=O)NCn1c(=O)on(C(=O)N(c2ccc(F)cc2F)C(C)C)c1=O [Compound 622]

>  <Plant response rating, B. signalgrass>
0

$$$$
>  <molecule>
CC(=O)N(C)CCn1c(=O)on(C(=O)N(c2ccc(F)cc2)C(C)C)c1=O [Compound 625]

>  <Plant response rating, B. signalgrass>
8

$$$$
>  <molecule>
CCn1ncc(Cn2c(=O)on(C(=O)N(c3ccc(Cl)cc3)C(C)C)c2=O)c1Cl [Compound 684]

>  <Plant response rating, B. signalgrass>
4

$$$$

Now for another entry.
Problem: I would be grateful if you could share the reported Plant response rating, B. signalgrass for CC(=O)NCn1c(=O)on(C(=O)N(c2ccccc2)C(C)C)c1=O [Compound 621] .
Solution: 0

====

This section presents molecules with their documented Redroot pigweed plant response rating values.
# Test system: pigweed
# measurement description: Test B pre/postemergence pigweed
# Format: in vivo, Amaranthus retroflexus
# experimental setup: Postemergence, Rate 250 g/ha; scale 0 to 10
Just the number, please, no unit attached.

>  <molecule>
COC(C)n1c(=O)on(C(=O)N(c2ccc(F)cc2)C(C)C)c1=O (stereo not shown) [Compound 439]

>  <val>
0

$$$$
>  <molecule>
CC(C)N(C(=O)n1oc(=O)n(CC#N)c1=O)c1ccc(Cl)cc1 [Compound 476]

>  <val>
0

$$$$
>  <molecule>
CC(C)N(C(=O)n1oc(=O)n(Cc2cnc(Cl)s2)c1=O)c1ccc(F)cc1 [Compound 482]

>  <val>
2

$$$$

# ---- query molecule ----
Problem: Tell me the measured Redroot pigweed plant response rating of Cc1nc(C)c(C(C)n2c(=O)on(C(=O)N(c3ccc(F)cc3F)C(C)C)c2=O)s1 (stereo not shown) [Compound 443] , please.
Solution: 0

====

# Test system: wild oat
# measurement description: Test B pre/postemergence wild oat
# Assay type: in vivo, Avena fatua
# experimental setup: Preemergence, Rate 500 g/ha; scale of 0 to 10 where 0 is no effect and 10 is complete control
measured metric: Wild oats plant response rating
Keep it simple and answer with nothing but the number.

Worked examples, 4 compounds total:
>  <compound>
CC(C)N(C(=O)n1oc(=O)[nH]c1=O)c1ccc(F)cc1F

>  <Wild oats plant response rating>
0

$$$$
>  <compound>
CCC(CC)n1c(=O)on(C(=O)N(c2ccc(F)cc2F)C(C)C)c1=O

>  <Wild oats plant response rating>
6

$$$$
>  <compound>
CC(C)N(C(=O)n1oc(=O)n(C(C)Cl)c1=O)c1ccc(F)cc1 (centres unmarked)

>  <Wild oats plant response rating>
3

$$$$
>  <compound>
CC(C)N(C(=O)n1oc(=O)n(C2(C)CC2)c1=O)c1ccccc1

>  <Wild oats plant response rating>
10

$$$$

Lab note: next compound to report on.
Problem: Recorded Wild oats plant response rating of CCOCn1c(=O)on(C(=O)N(c2ccc(F)cc2F)C(C)C)c1=O , please.
Solution: 10
